Data origin: paper PMC7673538

Consider the following molecules; for each one, report its CC50.
- protocol: in vitro
- condition parameters: human, Exp 1 CC50 Hap1

Item: COc1ccc(N(Cc2ccccc2)C(=O)c2ccco2)cc1 [Compound 19c] | CC50: > 100 µM

Consider O=C(c1ccc[nH]1)N(Cc1ccc(C(F)(F)F)cc1)c1ccccc1 [Compound 22] . Its measured CC50 is > 100 µM

Please fill in: CC50 reported for O=C(c1ccco1)N(Cc1ccc(C(F)(F)F)cc1)c1ccccc1 [Compound 19d] = 97.5 µM

The recorded CC50 for O=C(c1ccco1)N(Cc1ccc(F)cc1)c1ccccc1 [Compound 19b] is > 100 µM

Please state, for each entry, its recorded CC50.
1. Cc1ccc(CN(C(=O)c2ccco2)c2ccccc2)cc1 [Compound 19g]
2. COc1ccc(N(Cc2ccc(F)cc2)C(=O)c2ccccn2)cc1 [Compound 5e]

> 100 µM
> 100 µM

Report CC50 for every entry below.
1. O=C(c1ccco1)N(Cc1ccccc1)c1ccccc1 [Compound 19a, N-Benzyl-N-phenylfuran-2-carboxamide]
2. COc1ccc(N(Cc2ccc(C(F)(F)F)cc2)C(=O)c2ccco2)cc1 [Compound 19e]
3. CC(C)c1ccc(CN(C(=O)c2ccco2)c2ccccc2)cc1 [Compound 19h]
4. COc1ccc(N(Cc2ccc(F)cc2)C(=O)c2ccc[nH]2)cc1 [Compound 5c]

["> 100 µM", "55.3 µM", "48.4 µM", "> 100 µM"]

Each of the following entries comes with a recorded value; kindly state CC50 for each.
1. COc1ccc(N(Cc2ccc(F)cc2)C(=O)c2cc[nH]c2)cc1 [Compound 12a]
2. COc1ccc(N(Cc2ccc(F)cc2)C(=O)c2cccs2)cc1 [Compound 5d]
3. O=C(c1ccco1)N(Cc1ccccc1)c1ccc(C(F)(F)F)cc1 [Compound 19i]
4. COc1ccc(N(Cc2ccc(F)cc2)C(=O)c2ccco2)cc1 [Compound 1]

1: > 100 µM; 2: 53.9 µM; 3: > 100 µM; 4: 45.1 µM
